Experimental Protocol: Example 1 single-dose plasma pharmacokinetics after intranasal administration
Type: in vivo, human
Run Conditions: male, human, plasma, inhaled or intranasal, 160 mg, Male healthy subjects; single intranasal 160 mg cocaine HCl; plasma; read-out: t1/2 (Median) (converted)
Readout Name: half-life (min)
Reply numerically in min, unit not repeated.

stdin: May I ask what half-life has been recorded for COC(=O)[C@H]1[C@@H](OC(=O)c2ccccc2)C[C@@H]2CC[C@H]1N2C [Cocaine, cocaine, reference compound] ?
stdout: 58

====

Experimental Protocol: Example 3 plasma pharmacokinetics, normal hepatic function vs hepatic impairment
Run Conditions: both, human, plasma, inhaled or intranasal, 160 mg, t1/2 (Mean), normal hepatic function; single intranasal 160 mg cocaine HCl
Readout Name: half-life
Give the figure together with its unit, number first.

stdin: Please report the recorded half-life for COC(=O)[C@H]1[C@@H](OC(=O)c2ccccc2)C[C@@H]2CC[C@H]1N2C [Cocaine, cocaine, reference compound] .
stdout: 8.11 h
